# TARGET ENTITY: GST-Bcl-XL (Homo sapiens, UniProt Q07817)
# Sequence (Q07817 whole entry): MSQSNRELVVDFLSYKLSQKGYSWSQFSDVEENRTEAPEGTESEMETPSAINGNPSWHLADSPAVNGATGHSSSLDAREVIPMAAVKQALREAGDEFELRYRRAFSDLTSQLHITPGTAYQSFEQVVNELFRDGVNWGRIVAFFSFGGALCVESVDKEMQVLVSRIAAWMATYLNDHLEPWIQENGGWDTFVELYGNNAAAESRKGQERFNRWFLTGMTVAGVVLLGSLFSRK
# ASSAY COMMENT: TR-FRET binding assay, GST-Bcl-XL with F-Bak peptide probe
# CONDITION CONTEXT: TR-FRET Binding Affinity, GST-Bcl-XL, F-Bak peptide probe
# Description: Tb-anti-GST antibody was purchased from Invitrogen (Catalog No. PV4216). […] The samples were then mixed on a shaker for 1 minute and incubated for an additional 3 hours at room temperature. […] Fluorescence was measured on the ENVISION plate reader (Perkin Elmer) using a 340/35 nm excitation filter and 520/525 (F-Bak peptide) and 495/510 nm (Tb-labeled […] antibody) emission filters. […]
Lab note: compare Ki with 20 nM, writing TRUE if less and FALSE if equal or more.

Prompt: # TODO verify Ki < 20 nM strictly for this molecule: O=C(NS(=O)(=O)c1ccc(NCC2CCOCC2)c([N+](=O)[O-])c1)c1ccc(N2CCN(Cc3ccc(C(F)(F)F)cc3-c3ccc(Cl)cc3)CC2)cc1Oc1ccc2[nH]ccc2c1
Completion: FALSE

Prompt: # TODO verify Ki < 20 nM strictly for this molecule: CN1CCN(Nc2ccc(S(=O)(=O)NC(=O)c3ccc(N4CCN(CC5=C(c6ccc(Cl)cc6)CC(C)(C)CC5)CC4)cc3Oc3ccc4[nH]ccc4c3)cc2S(=O)(=O)C(F)(F)F)CC1
Completion: FALSE

Prompt: # TODO verify Ki < 20 nM strictly for this molecule: CN1CCC(Nc2ccc(S(=O)(=O)NC(=O)c3ccc(N4CCN(CC5=C(c6ccc(Cl)cc6)CC(C)(C)CC5)CC4)cc3Oc3cccc4c3CCN4)cc2[N+](=O)[O-])CC1
Completion: TRUE

Prompt: # TODO verify Ki < 20 nM strictly for this molecule: CC1(C)CCC(CN2CCN(c3ccc(C(=O)NS(=O)(=O)c4ccc(NC5CCC(F)(F)CC5)c([N+](=O)[O-])c4)c(Oc4ccc5[nH]ccc5c4)c3)CC2)=C(c2ccc(Cl)cc2)C1
Completion: FALSE

Prompt: # TODO verify Ki < 20 nM strictly for this molecule: CC1(C)CCC(CN2CCN(c3ccc(C(=O)NS(=O)(=O)c4ccc(NCCN5CCOCC5)c(S(=O)(=O)C(F)(F)F)c4)c(Oc4ccc5[nH]ccc5c4)c3)CC2)=C(c2ccc(Cl)cc2)C1
Completion: FALSE

Prompt: # TODO verify Ki < 20 nM strictly for this molecule: CC1(C)CCC(CN2CCN(c3ccc(C(=O)NS(=O)(=O)c4ccc(NC[C@H]5CCCO5)c([N+](=O)[O-])c4)c(Oc4ccc5[nH]ccc5c4)c3)CC2)=C(c2ccc(Cl)cc2)C1
Completion: FALSE

Prompt: # TODO verify Ki < 20 nM strictly for this molecule: CC1(C)CCC(CN2CCN(c3ccc(C(=O)NS(=O)(=O)c4ccc(NC5CCN(CCO)CC5)c([N+](=O)[O-])c4)c(Oc4cccc5[nH]ccc45)c3)CC2)=C(c2ccc(Cl)cc2)C1
Completion: TRUE

Prompt: # TODO verify Ki < 20 nM strictly for this molecule: CN(C)CCOc1ccc(-c2ccc(Cl)cc2)c(CN2CCN(c3ccc(C(=O)NS(=O)(=O)c4ccc(NCC5CCOCC5)c([N+](=O)[O-])c4)c(Oc4ccc5[nH]ccc5c4)c3)CC2)c1
Completion: FALSE

Prompt: # TODO verify Ki < 20 nM strictly for this molecule: CC1(C)CCC(CN2CCN(c3ccc(C(=O)NS(=O)(=O)c4ccc(NCC5(C)COC5)c([N+](=O)[O-])c4)c(Oc4ccc5[nH]ccc5c4)c3)CC2)=C(c2ccc(Cl)cc2)C1
Completion: FALSE
